- Measurement Protocol: qHTS assay to identify small molecule agonists of the peroxisome proliferator-activated receptor delta (PPARd) signaling pathway - cell viability counter screen (AID 743211); also: % is scaled to controls: 0 for no effect and ±100 for the full control effect; nearly all actives have a fitted effect of over 55% in size
- Condition Parameters: PPARd-bla HEK293H viability, CellTiter-Glo luminescence, 17 h; series mostly up to 62.6 µM
Inconclusive results are not listed. Active and inactive are the calls of the source. Calls follow the shape of the dose curve; as a rule, active = well fitted cell-killing curve with a large enough effect in the repeat runs; inconclusive = weak or mixed curves; inactive = no such curve, though single readings can be large or run the other way.
Property: activity change, negative = cytotoxicity

Nc1nc(Cl)cc(Cl)n1    inactive
CCCCCCCCCCCCCCCC(=O)OC    inactive
Cc1ccc(N)nc1    inactive
Cc1ccc2ccccc2n1    inactive
C/C(Cl)=C/CCl    inactive
Cc1ccccc1C#N    inactive
C=C(C)C(=O)OCCOC1CC2CC1C1C=CCC21 (centres undefined)    inactive
COc1cc(OC)cc(OC)c1    inactive

Query string: Dear colleague, I am looking for the recorded activity change, negative = cytotoxicity of the following compound: N#CC1(N)CCCCC1
Result string: inactive

Query string: Dear colleague, I am looking for the recorded activity change, negative = cytotoxicity of the following compound: CN(C)CCc1c[nH]c2ccc(CS(=O)(=O)N3CCCC3)cc12
Result string: inactive

Query string: Dear colleague, I am looking for the recorded activity change, negative = cytotoxicity of the following compound: C=CC(=O)CC
Result string: inactive

Query string: Dear colleague, I am looking for the recorded activity change, negative = cytotoxicity of the following compound: NC(=O)CC[C@@H](N)C(=O)O
Result string: inactive

Query string: Dear colleague, I am looking for the recorded activity change, negative = cytotoxicity of the following compound: Cc1cc2c(cc1CC(=O)c1sccc1S(=O)(=O)Nc1onc(C)c1Cl)OCO2
Result string: inactive

Query string: Dear colleague, I am looking for the recorded activity change, negative = cytotoxicity of the following compound: CC(=O)Oc1ccc(C(C)=O)cc1
Result string: inactive

Query string: Dear colleague, I am looking for the recorded activity change, negative = cytotoxicity of the following compound: NNC(=O)CCCCC(=O)NN
Result string: inactive

###

- Measurement Protocol: qHTS assay to identify small molecule agonists of the constitutive androstane receptor (CAR) signaling pathway - cell viability counter screen (AID 1224836); also: % is scaled to controls: 0 for no effect and ±100 for the full control effect; nearly all actives have a fitted effect of over 45% in size
- Condition Parameters: HepG2-CYP2B6-hCAR viability, CellTiter-Fluor, 23 h, PK11195 added to every well; series mostly up to 92.4 µM
- Excerpt: U.S. Tox21 Program National Center for Advancing Translational Sciences [NCATS] NIH Chemical Genomics Center [NCGC] U.S. Environmental Protection Agency [EPA] National Institutes of Environmental Health Sciences [NIEHS] National Toxicology Program [NTP] U.S. Food and Drug Administration [FDA] […] Tox21 Assay Protocol Summary: A double-stable (hCAR and CYP2B6-2.2kb) transfected cell line, derived from human hepatoma (HepG2) cells, was utilized for the duration of the quantitative high-throughput screens. […]
Records with an inconclusive call do not appear. Active and inactive are the calls of the source. Calls follow the shape of the dose curve; as a rule, active = well fitted cell-killing curve with a large enough effect in the repeat runs; inconclusive = weak or mixed curves, or effect the other way; inactive = flat fitted curve, though single readings scatter.
Property: viability change, negative = cytotoxic

In the examples that follow, each entry is paired with its recorded viability change, negative = cytotoxic.
NCC1CCC(C(=O)Oc2ccc(CCC(=O)O)cc2)CC1 (stereo not given)    inactive
C=COCCCCO    inactive
CCCCCCCCCCCCCCCC/C=C/C1CC(=O)OC1=O (stereo not given)    inactive
COC(C)(C)CC(C)=O    inactive

Query string: Dear colleague, I am looking for the recorded viability change, negative = cytotoxic of the following compound: COc1ccc(Cl)cc1C
Result string: inactive

Query string: Dear colleague, I am looking for the recorded viability change, negative = cytotoxic of the following compound: CC1(C)CC(N)CC(C)(C)N1
Result string: inactive

Query string: Dear colleague, I am looking for the recorded viability change, negative = cytotoxic of the following compound: CCCCCCC(=O)c1ccccc1
Result string: inactive

Query string: Dear colleague, I am looking for the recorded viability change, negative = cytotoxic of the following compound: C[C@@H]1CC[C@@]2(OC1)O[C@H]1C[C@H]3[C@@H]4CC[C@H]5C[C@@H](O)CC[C@]5(C)[C@H]4CC(=O)[C@]3(C)[C@H]1[C@@H]2C
Result string: 0.858% [at 8.39 µM] (inactive)

Query string: Dear colleague, I am looking for the recorded viability change, negative = cytotoxic of the following compound: Cc1cc(=O)oc2cc(O[C@@H]3SC[C@@H](O)[C@H](O)[C@H]3O)ccc12
Result string: inactive

Query string: Dear colleague, I am looking for the recorded viability change, negative = cytotoxic of the following compound: N=C(N)N1CCc2ccccc2C1
Result string: -1.33% [at 8.39 µM] (inactive)

Query string: Dear colleague, I am looking for the recorded viability change, negative = cytotoxic of the following compound: CC(=O)O[C@@H]1CC2C3CCc4cc(OC(=O)c5ccccc5)ccc4C3CCC2(C)[C@H]1OC(C)=O (stereo not given in full)
Result string: inactive

Query string: Dear colleague, I am looking for the recorded viability change, negative = cytotoxic of the following compound: NNC(=O)OCc1ccccc1
Result string: inactive

Query string: Dear colleague, I am looking for the recorded viability change, negative = cytotoxic of the following compound: Cc1cc(C)c(C)c(C)c1
Result string: inactive

Query string: Dear colleague, I am looking for the recorded viability change, negative = cytotoxic of the following compound: Cc1ccc2cccnc2c1
Result string: inactive

Query string: Dear colleague, I am looking for the recorded viability change, negative = cytotoxic of the following compound: CCCCCCCCS(=O)(=O)O
Result string: inactive

Query string: Dear colleague, I am looking for the recorded viability change, negative = cytotoxic of the following compound: COc1cc(OC)cc(OC)c1
Result string: inactive

Query string: Dear colleague, I am looking for the recorded viability change, negative = cytotoxic of the following compound: CCCCCCCCCCCC(C)=O
Result string: inactive

Query string: Dear colleague, I am looking for the recorded viability change, negative = cytotoxic of the following compound: BrCCOc1ccccc1
Result string: inactive

Query string: Dear colleague, I am looking for the recorded viability change, negative = cytotoxic of the following compound: COc1ccccc1N1CCN(CC(O)COc2cc(OC)c(OC)c(OC)c2)CC1 (stereo not given)
Result string: inactive

Query string: Dear colleague, I am looking for the recorded viability change, negative = cytotoxic of the following compound: CCOC(=O)c1ccc(N(C)C)cc1
Result string: inactive

Query string: Dear colleague, I am looking for the recorded viability change, negative = cytotoxic of the following compound: C[C@]12C=CC(=O)C=C1[C@@H](F)C[C@@H]1[C@@H]2[C@@H](O)C[C@@]2(C)[C@H]1CC[C@]2(O)C(=O)CO
Result string: inactive

Query string: Dear colleague, I am looking for the recorded viability change, negative = cytotoxic of the following compound: CCNC(=O)C(C)OC(=O)Nc1ccccc1 (stereo not given)
Result string: inactive

Query string: Dear colleague, I am looking for the recorded viability change, negative = cytotoxic of the following compound: CCCCN(CCCC)CCCCCCN(CCCC)CCCC
Result string: inactive

Query string: Dear colleague, I am looking for the recorded viability change, negative = cytotoxic of the following compound: COc1cc(S(N)(=O)=O)cc(C(=O)O)c1OC
Result string: inactive

Query string: Dear colleague, I am looking for the recorded viability change, negative = cytotoxic of the following compound: COC(=O)c1cc(Cl)c(NC(C)=O)cc1OC
Result string: inactive
